Listed here are sequences together with their documented apparent KD of MS2 coat protein.
# System: MS2 coat protein
# assay.protocol: apparent KD of MS2 coat protein; designed switch direction (-1 OFF switch, 1 ON switch): 1; higher = weaker reporter binding
# test.conditions: Eterna round: R95; input ligand: none

Answered cases to consult:
[
  {
    "sequence.entry": "CUGCUACAUGAGGAUCACCCAUGUUGGAGUGAUGCAGGAUAUGUGGGACCAGAAGAUGAAACAGAAGGGCAAAGAA [JR_SS!_Sub005] (puzzle: Same State 1)",
    "apparent KD of MS2 coat protein": "97.6 nM"
  },
  {
    "sequence.entry": "AUAAGUUUGAUGCUCGUCUCUCCGUACAAACAUGAGGAUCACCCAUGUGGUCGGGAAGUAGCCCGGCCAGUAUGGCA [Arbitius] (puzzle: Sensor for hsa-mir-208a)",
    "apparent KD of MS2 coat protein": "47.3 nM"
  },
  {
    "sequence.entry": "AAUUAUUAACAUGAGGAUCACCCAUGUAAAACAUGGAUUAACAAGCCUUUUCGUUUUUGCUCGUCUUAUAUUAUUAA [Bojan's Design] (puzzle: Sensor for hsa-mir-208a version 2)",
    "apparent KD of MS2 coat protein": "199 nM"
  }
]

Request: Returns the measured apparent KD of MS2 coat protein for the input sequence. Input: CAGCGCUGUCGAGAGGAUAUGCGGUGGUGGACAUGAGGAUCACCCAUGUUAGCGAUAGCAUUACGGUAGAAGGCUCUACAGCUGC [Soteed - 2] (puzzle: Same State 2)
Result: 33 nM

Request: Returns the measured apparent KD of MS2 coat protein for the input sequence. Input: UCUUGGUUUUUGCUCGUUUUUUGUGUUGAACAUGAGGAUCACCCAUGUAUUGUACAGUCCAGUUUAAUAAUGGUCCA [JMF 5] (puzzle: Sensor for hsa-mir-208a)
Result: 48.8 nM

Recorded values, source the supplement of paper PMC9170038.
